FYI, the data here is from ChEMBL document CHEMBL5058577.

System: Fibroblast
Test: Multiplex assay against human fibroblast
Assay type: toxicity, cell-based
Conditions: 12 h, 1 µM, compound concentration 1 uM, replicate 1
READOUT_KIND: Population Fragmented Nuclei (%)
One number for each entry, in %.

>  <LINE_NOTATION>
CN[C@@H](C)C(=O)N[C@H](C(=O)N1CCC[C@H]1C(=O)Nc1snnc1-c1ccccc1)C1CCCCC1

>  <RESULT>
14

$$$$

Give Population Fragmented Nuclei (%) for each of the items listed below.
1. CCc1cc2cc(NS(=O)(=O)c3ccc(C#N)cc3)ccc2n(CC)c1=O
2. NCCc1cn(S(=O)(=O)c2c(Cl)nc3sccn23)c2ccccc12.O=C(O)C(=O)O
3. Cc1onc(-c2ccccc2Cl)c1C(=O)N(C)c1ccc(Cl)cc1
4. CCCOc1ccc2[nH]cc(C3=CCNCC3)c2n1.Cl

Given back:
1: 16; 2: 20; 3: 17; 4: 13

---

Provide the recorded Population Healthy Nuclei (%) for the entries that follow.
System: HEK-293T
Assay: Multiplex assay against HEK293T
Type: toxicity, cell-based
Details: human, 24 h, 10 µM, compound concentration 10 uM, replicate 1
Give bare numbers, in %.

>  <COMPOUND>
COc1ccccc1N1CCN(C[C@@H](C(=O)NC(C)(C)C)c2ccccc2)CC1.Cl.Cl

>  <TESTED_TARGET>
HEK-293T

>  <Population Healthy Nuclei (%)>
68

$$$$

Give Population Healthy Nuclei (%) for each of the items listed below.
1. Br.CS(=O)(=O)Nc1c(O)ccc2c1CCCC2C1=NCCN1 (stereo not given)
2. Cc1c(CC(=O)O)c2cccnc2n1Cc1ccc(S(C)(=O)=O)cc1C(F)(F)F
3. CC(C)c1noc(N2CCC(COc3ccc(-c4ccc(S(C)(=O)=O)cc4)nc3)CC2)n1
4. NCCc1cn(S(=O)(=O)c2c(Cl)nc3sccn23)c2ccccc12.O=C(O)C(=O)O

Given back:
1: 75; 2: 80; 3: 79; 4: 37

---

Tested on: Fibroblast
Assay: Multiplex assay against human fibroblast
Type: toxicity, cell-based
Conditions: 48 h, 10 µM, compound concentration 10 uM, replicate 1
READOUT_KIND: Population Fragmented Nuclei (%)
Answers are plain numbers, in %.

>  <COMPOUND>
CCCCC1=NC2(CCCC2)C(=O)N1Cc1ccc(-c2ccccc2-c2nnn[nH]2)cc1

>  <UNITS_LABEL>
%

>  <RESULT>
14

$$$$
>  <COMPOUND>
Cc1onc(-c2ccccc2Cl)c1C(=O)N(C)c1ccc(Cl)cc1

>  <UNITS_LABEL>
%

>  <RESULT>
25

$$$$

Give Population Fragmented Nuclei (%) for each of the items listed below.
1. CCCCC(=O)N(Cc1ccc(-c2ccccc2-c2nnn[nH]2)cc1)[C@H](C(=O)O)C(C)C
2. Br.CS(=O)(=O)Nc1c(O)ccc2c1CCCC2C1=NCCN1 (stereo not given)
3. CCCOc1ccc2[nH]cc(C3=CCNCC3)c2n1.Cl
4. CC(C)COc1ccc(CNC(=O)N(Cc2ccc(F)cc2)C2CCN(C)CC2)cc1

Given back:
28
22
21
15

Give Population Fragmented Nuclei (%) for each of the items listed below.
1. C[C@H](N)COC(=O)[C@@H](CCCCN)NC(=O)Cc1c(-c2ccc3ccccc3c2)[nH]c2c1ccc1ccccc12
2. CN1CCN(c2cc(-c3ccccc3)nc(N)n2)CC1
3. O=C1[C@H](Cc2ccc(O)cc2)N2C(=O)CCN(C(=O)NCc3ccccc3)[C@H]2CN1Cc1cccc2ccccc12
4. N#Cc1c(Oc2cccc(OS(=O)(=O)CCCC(F)(F)F)c2)cccc1C(F)(F)F
5. CC(/C=C1\SC(=S)N(CCCC(=O)Nc2ccc(C(=O)O)c(O)c2)C1=O)=C\c1ccccc1
6. COC[C@@H](c1ccc(C(F)(F)F)cc1)N1CCN(C2(C)CCN(C(=O)c3c(C)ncnc3C)CC2)C[C@@H]1C.O=C(O)/C=C\C(=O)O [VICRIVIROC MALEATE]
7. Cc1sc2c(c1C)C(c1ccc(Cl)cc1)=N[C@@H](CC(=O)NCCCCCCCCNC(=O)COc1cccc3c1C(=O)N(C1CCC(=O)NC1=O)C3=O)c1nnc(C)n1-2 (stereo not given in full)
8. Cl.N=C(N)NC(=O)Cc1c(Cl)cccc1Cl [GUANFACINE HYDROCHLORIDE]

Given back:
1. 16
2. 26
3. 21
4. 20
5. 18
6. 23
7. 40
8. 22

Asked: Tell me the measured Population Fragmented Nuclei (%) of `CC(=O)Nc1cccc2c1c(Sc1ccc(Cl)cc1)c(C)n2CC(=O)O` , please.
Given back: 21

---

Provide the recorded Population Tubulin-Different-Phenotype (%) for the entries that follow.
System: U2OS
Assay: Multiplex assay against U2OS
Assay type: toxicity, cell-based
Conditions: human, 48 h, 1 µM, compound concentration 1 uM, replicate 2
Answers are plain numbers, in %.

Give Population Tubulin-Different-Phenotype (%) for each of the items listed below.
1. CCc1cc2cc(NS(=O)(=O)c3ccc(C#N)cc3)ccc2n(CC)c1=O
2. Cc1cnc(-c2cc(N3CCN(C(=O)CCS(C)(=O)=O)CC3)ncc2Cl)c(C)c1
3. CCCOc1ccc2[nH]cc(C3=CCNCC3)c2n1.Cl
4. CC(C)COc1ccc(CNC(=O)N(Cc2ccc(F)cc2)C2CCN(C)CC2)cc1
5. CC[C@@H](C)Nc1nc(C)nc2c(-c3ccc(OC)nc3C)c(C)nn12
6. CC(C)c1noc(N2CCC(COc3ccc(-c4ccc(S(C)(=O)=O)cc4)nc3)CC2)n1
7. O=C1[C@H](Cc2ccc(O)cc2)N2C(=O)CCN(C(=O)NCc3ccccc3)[C@H]2CN1Cc1cccc2ccccc12

Given back:
[3, 3, 3, 2, 4, 1, 5]

---

System: Fibroblast
Assay: Multiplex assay against human fibroblast
Type: toxicity, cell-based
Conditions: 24 h, 10 µM, compound concentration 10 uM, replicate 2
Provide the recorded Population Mitochondria Different-Phenotype (%) for the entries that follow.
Answers are plain numbers, in %.

>  <COMPOUND>
Br.CS(=O)(=O)Nc1c(O)ccc2c1CCCC2C1=NCCN1 (centres undefined)

>  <UNITS_LABEL>
%

>  <RESULT>
10

$$$$

Give Population Mitochondria Different-Phenotype (%) for each of the items listed below.
1. CC(C)c1noc(N2CCC(COc3ccc(-c4ccc(S(C)(=O)=O)cc4)nc3)CC2)n1
2. Cc1noc(-c2ccc(-c3ccc(CC(=O)O)cc3)cc2)c1NC(=O)O[C@H](C)c1ccccc1Cl
3. CC(C)(C)c1cc(NC(=O)Nc2ccc(-c3cn4c(n3)sc3cc(OCCN5CCOCC5)ccc34)cc2)no1

Given back:
10
10
10

Give Population Mitochondria Different-Phenotype (%) for each of the items listed below.
1. O=C1[C@H](Cc2ccc(O)cc2)N2C(=O)CCN(C(=O)NCc3ccccc3)[C@H]2CN1Cc1cccc2ccccc12
2. COC[C@@H](c1ccc(C(F)(F)F)cc1)N1CCN(C2(C)CCN(C(=O)c3c(C)ncnc3C)CC2)C[C@@H]1C.O=C(O)/C=C\C(=O)O [VICRIVIROC MALEATE]
3. Cl.N=C(N)NC(=O)Cc1c(Cl)cccc1Cl [GUANFACINE HYDROCHLORIDE]
4. CCCCC(=O)N(Cc1ccc(-c2ccccc2-c2nnn[nH]2)cc1)[C@H](C(=O)O)C(C)C
5. O=C(CCCc1ccccc1)Nc1nc2ccccc2c(=O)s1

Given back:
1. 21
2. 12
3. 3
4. 10
5. 14

---

System: U2OS
Test: Multiplex assay against U2OS
Type: toxicity, cell-based
Conditions: human, 48 h, 10 µM, compound concentration 10 uM, replicate 2
Provide the recorded Population Mitotic Cells (%) for the entries that follow.
Answers are plain numbers, in %.

Here's what some known entries look like.
>  <COMPOUND>
O=C(CCCc1ccccc1)Nc1nc2ccccc2c(=O)s1

>  <UNITS_LABEL>
%

>  <RESULT>
4

$$$$
>  <COMPOUND>
CC(C)COc1ccc(CNC(=O)N(Cc2ccc(F)cc2)C2CCN(C)CC2)cc1 [PIMAVANSERIN]

>  <UNITS_LABEL>
%

>  <RESULT>
4

$$$$
>  <COMPOUND>
COc1ccccc1N1CCN(C[C@@H](C(=O)NC(C)(C)C)c2ccccc2)CC1.Cl.Cl

>  <UNITS_LABEL>
%

>  <RESULT>
4

$$$$

Give Population Mitotic Cells (%) for each of the items listed below.
1. CCCCC1=NC2(CCCC2)C(=O)N1Cc1ccc(-c2ccccc2-c2nnn[nH]2)cc1 [IRBESARTAN]
2. O=C(NCCN1CCC(n2c(=O)[nH]c3cc(Cl)ccc32)CC1)c1ccc(F)cc1 [HALOPEMIDE]

Given back:
1: 5; 2: 22

---

System: Fibroblast
Assay: Multiplex assay against human fibroblast
Assay type: toxicity, cell-based
Conditions: 12 h, 10 µM, compound concentration 10 uM, replicate 2
Provide the recorded Population Healthy Nuclei (%) for the entries that follow.
Give bare numbers, in %.

>  <COMPOUND>
Cl.NCCc1ccc(O)c(O)c1 [DOPAMINE HYDROCHLORIDE]

>  <UNITS_LABEL>
%

>  <Population Healthy Nuclei (%)>
40

$$$$
>  <COMPOUND>
CC[C@@H](C)Nc1nc(C)nc2c(-c3ccc(OC)nc3C)c(C)nn12

>  <UNITS_LABEL>
%

>  <Population Healthy Nuclei (%)>
40

$$$$
>  <COMPOUND>
O=C(CCCc1ccccc1)Nc1nc2ccccc2c(=O)s1

>  <UNITS_LABEL>
%

>  <Population Healthy Nuclei (%)>
38

$$$$
>  <COMPOUND>
Br.CS(=O)(=O)Nc1c(O)ccc2c1CCCC2C1=NCCN1 (centres undefined)

>  <UNITS_LABEL>
%

>  <Population Healthy Nuclei (%)>
45

$$$$
>  <COMPOUND>
Cc1onc(-c2ccccc2Cl)c1C(=O)N(C)c1ccc(Cl)cc1

>  <UNITS_LABEL>
%

>  <Population Healthy Nuclei (%)>
48

$$$$
>  <COMPOUND>
COc1ccccc1N1CCN(C[C@@H](C(=O)NC(C)(C)C)c2ccccc2)CC1.Cl.Cl

>  <UNITS_LABEL>
%

>  <Population Healthy Nuclei (%)>
42

$$$$

Give Population Healthy Nuclei (%) for each of the items listed below.
1. CC(C)COc1ccc(CNC(=O)N(Cc2ccc(F)cc2)C2CCN(C)CC2)cc1
2. CC(=O)Nc1cccc2c1c(Sc1ccc(Cl)cc1)c(C)n2CC(=O)O
3. Cc1cccc(NC(=O)CN2CCC(c3ccccn3)CC2)c1.Cl.Cl

Given back:
[42, 42, 30]

Give Population Healthy Nuclei (%) for each of the items listed below.
1. Cc1cnc(-c2cc(N3CCN(C(=O)CCS(C)(=O)=O)CC3)ncc2Cl)c(C)c1
2. COc1cccc2c1c(NS(=O)(=O)c1ccc(Cl)s1)nn2Cc1cccc(CNC(=O)C(C)(C)O)c1
3. N#Cc1c(Oc2cccc(OS(=O)(=O)CCCC(F)(F)F)c2)cccc1C(F)(F)F

Given back:
1. 63
2. 55
3. 22

Give Population Healthy Nuclei (%) for each of the items listed below.
1. CN1CCN(c2cc(-c3ccccc3)nc(N)n2)CC1
2. CC(C)c1noc(N2CCC(COc3ccc(-c4ccc(S(C)(=O)=O)cc4)nc3)CC2)n1
3. CC(/C=C1\SC(=S)N(CCCC(=O)Nc2ccc(C(=O)O)c(O)c2)C1=O)=C\c1ccccc1
4. CCC(=O)N1CCN(c2ccc(-n3c(=O)ccc4cnc5ccc(-c6cnc7ccccc7c6)cc5c43)cc2C(F)(F)F)CC1

Given back:
1: 36; 2: 45; 3: 48; 4: 44
